- target: human p38 kinase alpha (Homo sapiens)
- Construct: GST (N, cleaved yes); made in house; host or cells: E. coli DH10B
- protocol.summary: p38 kinase in vitro assay, phosphorylation of biotinylated PHAS-I with 32P-ATP
- Assay type: biochemical
- test.context: @ 10.0 uM
measurement.type: P38 alpha kinase % inhib @ conc. (% @)

{"columns": ["molecule", "target", "P38 alpha kinase % inhib @ conc. (% @)"],
 "data": [
  ["Cc1c(-c2ccncc2)c(-c2ccc(F)cc2)nn1CC(=O)NC1CCSC1=O (stereo not shown) [Example B-2323]", "human p38 kinase alpha (Homo sapiens)", 69.0],
  ["CCN(Cc1c(F)cccc1Cl)C(=O)Cn1nc(-c2ccc(F)cc2)c(-c2ccncc2)c1C [Example B-2367]", "human p38 kinase alpha (Homo sapiens)", 46.0],
  ["CCCN(CCC)CC(C)NC(=O)Cn1nc(-c2ccc(F)cc2)c(-c2ccncc2)c1C (stereo not shown) [Example B-2358]", "human p38 kinase alpha (Homo sapiens)", 17.0],
  ["Cc1c(-c2ccncc2)c(-c2ccc(F)cc2)nn1CC(=O)NC1CCN(Cc2ccccc2)CC1 [Example B-2332]", "human p38 kinase alpha (Homo sapiens)", 70.0]
]}

1. Cc1c(-c2ccncc2)c(-c2ccc(F)cc2)nn1CC(=O)NC1CCCC1 [Example B-2333]
2. Cc1c(-c2ccncc2)c(-c2ccc(F)cc2)nn1CC(=O)N(C)CCc1ccccc1 [Example B-2376]
Sorting by P38 alpha kinase % inhib @ conc. in descending order, would 1 or 2 appear first? Which one? Tell me its label. 1
(1: 58.0 % @, 2: 32.0 % @)

----------
- target: human p38 kinase alpha (Homo sapiens, UniProt Q16539)
- Construct: GST (N, cleaved yes); made in house; host or cells: E. coli DH10B
- Sequence (Q16539 whole entry): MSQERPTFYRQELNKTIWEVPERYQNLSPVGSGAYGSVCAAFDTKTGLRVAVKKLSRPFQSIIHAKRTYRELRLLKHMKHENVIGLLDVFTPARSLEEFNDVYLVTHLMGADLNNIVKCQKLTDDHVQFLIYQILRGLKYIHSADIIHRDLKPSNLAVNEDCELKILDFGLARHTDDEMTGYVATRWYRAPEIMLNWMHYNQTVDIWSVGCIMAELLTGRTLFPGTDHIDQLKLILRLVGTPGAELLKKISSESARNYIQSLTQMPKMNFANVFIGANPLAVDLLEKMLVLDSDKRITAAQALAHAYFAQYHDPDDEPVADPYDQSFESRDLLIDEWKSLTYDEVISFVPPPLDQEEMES
- protocol.summary: p38 kinase in vitro assay, phosphorylation of biotinylated PHAS-I with 32P-ATP
- Type: biochemical
- test.context: @ 10.0 uM
measurement.type: P38 alpha kinase IC50, uM or % inhib @ conc. (uM): % inhib (% @)

{"columns": ["compound", "recorded.measurement"],
 "data": [
  ["COc1ccc2nc(NC(=O)Cn3nc(-c4ccc(F)cc4)c(-c4ccncc4)c3C)sc2c1", 86.0],
  ["CCCCCCCOc1ccc(NC(=O)Cn2nc(-c3ccc(F)cc3)c(-c3ccncc3)c2C)cc1", 89.0],
  ["Cc1c(-c2ccncc2)c(-c2ccc(F)cc2)nn1CC(=O)Nc1ccccc1C(C)(C)C", 84.0],
  ["Cc1c(-c2ccncc2)c(-c2ccc(F)cc2)nn1CC(=O)N1CCSC1c1ccco1 (stereo not shown)", 78.0],
  ["Cc1cccc(NC(=O)Cn2nc(-c3ccc(F)cc3)c(-c3ccncc3)c2C)c1", 86.0],
  ["COc1ccc(C2OCCN2C(=O)Cn2nc(-c3ccc(F)cc3)c(-c3ccncc3)c2C)cc1OC (stereo not shown)", 69.0],
  ["Cc1c(-c2ccncc2)c(-c2ccc(F)cc2)nn1CC(=O)Nc1ccc(C(F)(F)F)cc1", 81.0],
  ["COc1ccc(CN(CCc2ccccc2)C(=O)Cn2nc(-c3ccc(F)cc3)c(-c3ccncc3)c2C)cc1", 75.0],
  ["Cc1cccc(OC(=O)c2ccc(NC(=O)Cn3nc(-c4ccc(F)cc4)c(-c4ccncc4)c3C)cc2)c1", 89.0],
  ["Cc1c(-c2ccncc2)c(-c2ccc(F)cc2)nn1CC(=O)Nc1ccccc1C(=O)NC(C)c1ccccc1 (stereo not shown)", 86.0],
  ["Cc1c(-c2ccncc2)c(-c2ccc(F)cc2)nn1CC(=O)Nc1ccccc1Cc1ccccc1", 92.0],
  ["Cc1c(-c2ccncc2)c(-c2ccc(F)cc2)nn1CC(=O)Nc1cccc(F)c1", 92.0],
  ["COCCN(CC1CCCCC1)C(=O)Cn1nc(-c2ccc(F)cc2)c(-c2ccncc2)c1C", 63.0],
  ["Cc1ccc(NC(=O)Cn2nc(-c3ccc(F)cc3)c(-c3ccncc3)c2C)cc1", 85.0],
  ["Cc1c(-c2ccncc2)c(-c2ccc(F)cc2)nn1CC(=O)Nc1ccccc1C(F)(F)F", 86.0]
]}

----------
- target: human p38 kinase alpha (Homo sapiens, UniProt Q16539)
- Construct: GST (N, cleaved yes); made in house; host or cells: E. coli DH10B
- protocol.summary: p38 kinase in vitro assay, phosphorylation of biotinylated PHAS-I with 32P-ATP
- Type: biochemical
- test.context: in vitro P38-alpha kinase inhibition; read-out: P38 alpha kinase IC50
measurement.type: IC50 (nM)

{"columns": ["compound", "target", "recorded.measurement"],
 "data": [
  ["O=S(=O)(NCCc1[nH]nc(-c2ccc(F)cc2)c1-c1ccncc1)c1ccc(Cl)cc1", "human p38 kinase alpha (Homo sapiens, UniProt Q16539)", 30]
]}

P. O=S(=O)(NCCc1[nH]nc(-c2ccc(F)cc2)c1-c1ccncc1)c1ccc(F)c(Cl)c1
Q. CC(=O)OC(C)(C)C(=O)NC(C)c1[nH]nc(-c2ccc(F)cc2)c1-c1ccncc1 (stereo not shown)
Quick check, higher IC50 between P and Q ? Let me know the label of the one you choose. Q
(Q: 440 nM, P: 13 nM)

----------
- target: human p38 kinase alpha (Homo sapiens)
- Construct: GST (N, cleaved yes); made in house; host or cells: E. coli DH10B
- protocol.summary: p38 kinase in vitro assay, phosphorylation of biotinylated PHAS-I with 32P-ATP
- Type: biochemical
- test.context: in vitro P38-alpha kinase inhibition; read-out: P38 alpha kinase IC50
measurement.type: IC50 (nM)

Consider the worked cases shown below.
{"columns": ["compound", "recorded.measurement"],
 "data": [
  ["O=C(NC(Cc1ccccc1)c1[nH]nc(-c2ccc(F)cc2)c1-c1ccncc1)C1CCCN1 (stereo not shown) [Example B-0795]", 1900],
  ["O=S(=O)(NCCc1[nH]nc(-c2ccc(F)cc2)c1-c1ccncc1)c1ccc(C(F)(F)F)cc1 [Example B-1087]", 50]
]}

a. O=C(NC(Cc1ccccc1)c1[nH]nc(-c2ccc(F)cc2)c1-c1ccncc1)N1CCOCC1 (stereo not shown) [Example B-0727]
b. CC(NC(=O)NCc1ccccc1)c1[nH]nc(-c2ccc(F)cc2)c1-c1ccncc1 (stereo not shown) [Example B-0580]
c. CNC(=O)CCC(NC(=O)Nc1c(C)cccc1C)c1[nH]nc(-c2ccc(F)cc2)c1-c1ccncc1 (stereo not shown) [Example B-0882]
d. CC(NC(=O)c1ccc(I)cc1)c1[nH]nc(-c2ccc(F)cc2)c1-c1ccncc1 (stereo not shown) [Example B-0540]
e. CC(NC(=O)NC(Cc1ccccc1)c1[nH]nc(-c2ccc(F)cc2)c1-c1ccncc1)c1ccccc1 (stereo not shown) [Example B-0736]
Sort these compounds on IC50 so the largest reading comes first. Answer format: the labels, in the requested order. e, d, b, c, a

----------
- target: human p38 kinase alpha (Homo sapiens)
- Construct: GST (N, cleaved yes); made in house; host or cells: E. coli DH10B
- protocol.summary: p38 kinase in vitro assay, phosphorylation of biotinylated PHAS-I with 32P-ATP
- Format: biochemical
- test.context: in vitro P38-alpha kinase; read-out: P38 alpha kinase IC50
pIC50: −log10 of the molar value.
measurement.type: pIC50

Here is how some molecules turned out for pIC50.
{"columns": ["molecule", "recorded.measurement"],
 "data": [
  ["Cc1c(-c2ccncc2)c(-c2ccc(F)cc2)nn1CC(=O)NCCc1ccc([N+](=O)[O-])cc1 [Example B-2302]", 6.00],
  ["CS(=O)(=O)c1ccc(S(=O)(=O)N2CCC(c3[nH]nc(-c4ccc(F)cc4)c3-c3ccncc3)CC2)cc1 [Example B-1476]", 7.33],
  ["O=C(NCCCc1[nH]nc(-c2ccc(F)cc2)c1-c1ccncc1)c1ccccc1Cl [Example B-1343]", 7.19],
  ["Cc1ccccc1C(=O)NCCCc1[nH]nc(-c2ccc(F)cc2)c1-c1ccncc1 [Example B-1321]", 6.33],
  ["O=C(c1ccc(F)cc1F)N1CCC(c2[nH]nc(-c3ccc(F)cc3)c2-c2ccncc2)CC1 [Example B-1412]", 7.01]
]}

P. COc1ccc(Cl)cc1S(=O)(=O)N1CCC(c2[nH]nc(-c3ccc(F)cc3)c2-c2ccncc2)CC1 [Example B-1445]
Q. CCCNC(=O)Cn1nc(-c2ccc(F)cc2)c(-c2ccncc2)c1C [Example B-2270]
R. O=C(NCCCc1[nH]nc(-c2ccc(F)cc2)c1-c1ccncc1)c1ccc(F)cc1F [Example B-1353]
S. Cc1c(-c2ccncc2)c(-c2ccc(F)cc2)nn1CC(=O)NCCCN1CCCC1 [Example B-2307]
T. Cc1c(Cl)cccc1S(=O)(=O)NCCCc1[nH]nc(-c2ccc(F)cc2)c1-c1ccncc1 [Example B-1252]
Hi! Can you put these in order of pIC50, lowest number first? Please list each label once, in the requested order. S, Q, P, T, R
(S: 5.64, Q: 6.14, P: 6.37, T: 6.77, R: 7.21)

I. O=S(=O)(c1cccs1)N1CCC(c2[nH]nc(-c3ccc(F)cc3)c2-c2ccncc2)CC1 [Example B-1437]
II. O=S(=O)(NCCCc1[nH]nc(-c2ccc(F)cc2)c1-c1ccncc1)c1c(Cl)cccc1Cl [Example B-1258]
Rank I against II by their pIC50 values and give the higher one. # respond with the chosen item's label II
(II: 7.15, I: 6.52)
